molecular target: β1-adrenergic receptor (Homo sapiens (Human)); assay: cAMP Gs dynamic HTRF assay, β1 expressing CHO cells; format: cell-based; conditions: B1-AR; CHO-K1 (HitHunter); read-out: Average pEC50 [Receptor subtype: B1-AR; Cell type: CHO-K1 (HitHunter)] (converted)
Sequence (P08588 whole entry, species assumed): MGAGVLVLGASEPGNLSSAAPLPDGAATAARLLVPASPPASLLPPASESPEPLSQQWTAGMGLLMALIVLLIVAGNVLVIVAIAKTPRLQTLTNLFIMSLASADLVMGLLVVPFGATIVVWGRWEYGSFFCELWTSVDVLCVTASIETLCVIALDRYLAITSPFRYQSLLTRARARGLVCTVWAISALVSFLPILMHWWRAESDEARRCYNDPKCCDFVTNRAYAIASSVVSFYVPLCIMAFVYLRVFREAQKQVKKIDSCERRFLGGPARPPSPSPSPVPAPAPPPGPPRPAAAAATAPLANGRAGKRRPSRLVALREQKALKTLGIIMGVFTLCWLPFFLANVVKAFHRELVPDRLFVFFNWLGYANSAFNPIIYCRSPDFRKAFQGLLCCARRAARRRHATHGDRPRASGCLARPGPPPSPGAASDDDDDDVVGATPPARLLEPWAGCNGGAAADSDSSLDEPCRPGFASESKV
observable: EC50

molecule	EC50
CC(C)(C)NC[C@H](O)c1cccc(C2(C#N)CC2)n1	< 0.01 µM
CC(C)(C)NC[C@H](O)c1cccc(C2CCCC2)n1 [Compound 03-198]	> 1 µM
Cc1ncc(F)cc1[C@@H](O)CNC(C)(C)C	0.1 to 1 µM
CC(C)(C)NC[C@H](O)c1ccnc(C#N)c1	> 1 µM
CC1(NC[C@@H](O)c2cccc(C(F)(F)F)n2)CC1	> 1 µM
CC(C)(C)NC[C@@H](O)c1cccc(-n2cccn2)n1	0.1 to 1 µM
Cc1ccc([C@@H](O)CNC(C)(C)C)c(C)n1	0.1 to 1 µM
COc1ccc(C[C@@H](C)NC[C@@H](O)c2cccc(C(F)(F)F)n2)cc1	0.1 to 1 µM

# ---- query molecule ----
Input line: Give EC50 (β1-adrenergic receptor (Homo sapiens (Human))) of the following molecule: `Cn1cc(-c2cccc([C@@H](O)CNC(C)(C)C)n2)cn1`
Output line: 0.1 to 1 µM
